Biological target: UniProt:P08246
Sequence (P08246 30-267): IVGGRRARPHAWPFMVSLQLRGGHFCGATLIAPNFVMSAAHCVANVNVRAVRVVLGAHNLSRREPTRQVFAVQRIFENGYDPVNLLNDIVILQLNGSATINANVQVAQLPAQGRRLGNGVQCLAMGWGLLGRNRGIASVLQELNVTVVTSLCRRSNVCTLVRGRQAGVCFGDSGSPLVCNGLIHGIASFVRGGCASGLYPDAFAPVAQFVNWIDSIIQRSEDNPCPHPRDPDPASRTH
Assay: Inhibition of acute lung damaging effect caused by human leukocyte elastase enzyme, determined on mice (BAL haemoglobin)
Format: in vivo, mouse
Details: male NMRI mice; p.o. dose 10 mg/bw kg, 60 minutes before intratracheal human leukocyte elastase; haemorrhagic response (BAL haemoglobin, 540 nm) 3 hours later
Measured Endpoint: inhibition % (%)
Give bare numbers, in %.

These recorded examples may help you get a feel for the data.
{"columns": ["Compound", "Tested On", "Unit Of Measure", "inhibition %"],
 "data": [
  ["COc1cc(C(C)C)c2c(c1)S(=O)(=O)N(COc1cc(=O)n3cccc(OCCN4CCCCC4)c3n1)C2=O", "UniProt:P08246", "%", 80],
  ["COc1cc(C(C)C)c2c(c1)S(=O)(=O)N(COc1cc(=O)n3cccc(OCCN4CCCCC4)c3n1)C2=O.O=C(O)c1ccccc1", "UniProt:P08246", "%", 56],
  ["COc1cc(C(C)C)c2c(c1)S(=O)(=O)N(COc1cc(=O)n3cccc(OCCN4CCCC4)c3n1)C2=O [EP-626378, Example 9E, reference compound]", "UniProt:P08246", "%", 15]
]}

Here is another compound to look at.
Look up and report measured inhibition % (UniProt:P08246) for the following compound: COc1cc(C(C)C)c2c(c1)S(=O)(=O)N(COc1cc(=O)n3cccc(OCCN4CCCCC4)c3n1)C2=O.O=C(O)CC(O)(CC(=O)O)C(=O)O
70
